molecular target: Homeobox protein Hox-A13 (Mus musculus); assay: inhibitors of HoxA13-DNA binding, primary screen, biochemical, fluorescence polarization, labeled oligonucleotide (AID 1185); details: 15 min, higher = more signal, called active from +8 up or from −8 down
Recorded z-score determines the label; the label ranges are category 1 = under -4, category 2 = from -4 up to -1, category 3 = -1 and over

QUERY_SMILES | TARGET | ASSIGNED_CATEGORY
O=C1c2ccccc2[C@@]2(Cc3ccccc3N(C3CC3)C2=O)[C@H](c2ccc(CO)cc2)N1Cc1ccccc1C(F)(F)F | Homeobox protein Hox-A13 (Mus musculus) | category 2
O=C(NN=C1C[C@@H](O)[C@@H](O)[C@@H]2[C@@H]3C(=O)N(c4cccc(Oc5ccccc5)c4)C(=O)[C@@H]3CC[C@H]12)OCc1ccccc1 | Homeobox protein Hox-A13 (Mus musculus) | category 2
COc1ccc([Si](C)(C)[C@@H]2[C@@H](CCO)O[C@]3(C(=O)N(Cc4ccc(NC(C)=O)cc4)c4ccccc43)[C@H]2C)cc1 | Homeobox protein Hox-A13 (Mus musculus) | category 1
COCCOC(=O)N1C(=O)[C@@]2(c3cc(C#Cc4ccc(OC)cc4)ccc31)[C@H](c1ccc(O)cc1)N1[C@H](c3ccccc3)[C@H](c3ccccc3)OC(=O)[C@H]1[C@@H]2C(N)=O | Homeobox protein Hox-A13 (Mus musculus) | category 2
O=C1C[C@@H](O)[C@@H](O)[C@@H]2[C@@H]3C(=O)N(c4ccc(F)cc4F)C(=O)[C@@H]3CC[C@@H]12 | Homeobox protein Hox-A13 (Mus musculus) | category 3
CCOC(=O)CCN1C(=O)[C@H]2[C@H]3[C@H](O)C=CC(=O)[C@@H]3CC[C@H]2C1=O | Homeobox protein Hox-A13 (Mus musculus) | category 3
CC(CCN1CCc2nc(-c3ccccc3)c(-c3ccccc3)cc2C1)=NO[C@H](C)c1cn([C@@H]2COC[C@H]2O)nn1 | Homeobox protein Hox-A13 (Mus musculus) | category 1
COc1ccc([Si](C)(C)[C@H]2[C@H](CCO)O[C@@]3(C(=O)N(Cc4cccc(NC(=O)[C@H](C)O)c4)c4ccccc43)[C@@H]2C)cc1 | Homeobox protein Hox-A13 (Mus musculus) | category 1
C[C@H]1CC[C@@H](C(=O)O)N[C@@H]1c1ccc(C#CCN(C)C)cc1 | Homeobox protein Hox-A13 (Mus musculus) | category 2
C/C=C\[C@@H](NCc1ccccc1Br)[C@@H](O)Cc1ccccc1 | Homeobox protein Hox-A13 (Mus musculus) | category 2
CC(CCC(=O)OC[C@H]1O[C@H](C#Cc2ccccc2)C=C[C@@H]1Oc1ccc(C)cc1)=NOC[C@@H](O)COCc1ccco1 | Homeobox protein Hox-A13 (Mus musculus) | category 2
COc1ccc(O[C@H]2C=C[C@@H](c3ccccc3)O[C@@H]2COC(=O)CCC(C)=NO[C@H](C)c2cn([C@@H]3COC[C@H]3O)nn2)cc1 | Homeobox protein Hox-A13 (Mus musculus) | category 1
COC(=O)CC=C[C@H](C)[C@@H](OCc1ccccc1Br)C(C)C | Homeobox protein Hox-A13 (Mus musculus) | category 3
C=C(/C(=C/C[C@H](OC(C)=O)c1ccc(OCCO)cc1)c1cnc2ccccc2c1)C(C)C | Homeobox protein Hox-A13 (Mus musculus) | category 1
CC(C)=NOCc1ccc(-c2cc(-c3ccccc3)no2)cc1 | Homeobox protein Hox-A13 (Mus musculus) | category 3
COC(=O)[C@]1(CO)N=C(c2ccc(OCCCO)cc2)O[C@@H]1c1ccccc1N=[N+]=[N-] | Homeobox protein Hox-A13 (Mus musculus) | category 1
CC(C)CON=C1C[C@@H](O)[C@@H](O)[C@@H]2[C@@H]3C(=O)N(Cc4ccccc4)C(=O)[C@@H]3CC[C@@H]12 | Homeobox protein Hox-A13 (Mus musculus) | category 3
C=C(CCCC)C(=O)CC[C@@H](OC(C)=O)c1cccc(OCCO)c1 | Homeobox protein Hox-A13 (Mus musculus) | category 2
COCCCNC(=O)[C@@]1(CCS(=O)(=O)c2ccccc2)N=C(c2ccc(OCCCO)cc2)O[C@H]1c1ccccc1 | Homeobox protein Hox-A13 (Mus musculus) | category 1

---

test: MM1S myeloma cell viability, profiling panel, resazurin fluorescence, basal, 24 h, PK04 Diversity Set (AID 1174); conditions: higher = more signal, called active from +8 up or from −8 down;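 note: MM1S multiple myeloma cell line; test concentration not given here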

COMPOUND | z-score
CCOC(=O)CCN1C(=O)[C@H]2[C@H]3[C@H](O)[C@H](O)CC(=NOCc4ccccc4)[C@@H]3CC[C@H]2C1=O | -0.406
CCN1C(=O)[C@H]2[C@H]3[C@H](O)[C@H](O)CC(=NOCc4ccccc4)[C@H]3CC[C@H]2C1=O | -0.344
CC(C)[C@@H](OCc1ccccc1)[C@H](C)C=NOC[C@@H](C)[C@H](OCc1ccccc1)C(C)C | -0.908
C[C@@H](c1ccccc1)N1C(=O)[C@H]2[C@H]3[C@H](O)C=CC(=O)[C@@H]3CC[C@H]2C1=O | 0.711
CC(C)CN1CCc2nc(-c3ccccc3)c3c(c2CC1)CO[C@@H](C)C3 | 0.389
CCc1cc2c(nc1CC)CCN(CCC(C)=NO[C@@H](C)c1cc(-c3c(C)cc(C)cc3C)no1)C2 | -0.433
CC1CC/C=C\[C@H]2OC34C=CCN(C(C)C)C(=O)[C@H]3N(CCCO)C(=O)[C@@H]4C2C(=O)O1 (stereo partly drawn) | 0.48
CO[C@@H]1COC(=O)CC=C[C@@H](C)[C@@H]2C=C[C@H](O)[C@@H](COC(=O)[C@H](C)NC(=O)CC=C[C@H]1C)O2 | 0.945
CC(C)CON=C1[C@H]2CCn3c(=O)n(-c4ccccc4)c(=O)n3[C@H]2[C@H](O)[C@@H]2O[C@H]12 | -1.21
COc1ccc(COC(=O)NN=C2C[C@@H](O)[C@@H](O)[C@@H]3[C@@H]4C(=O)N(c5ccc(F)cc5F)C(=O)[C@@H]4CC[C@@H]23)cc1 | 0.527
CO[C@@H]1COC(=O)CCC[C@@H](C)[C@H](OC)COC(=O)CCC[C@H]1C | 0.367
O=C(NN=C1C[C@@H](O)[C@@H](O)[C@@H]2[C@@H]3C(=O)N(c4cccc(Oc5ccccc5)c4)C(=O)[C@@H]3CC[C@H]12)OCc1ccccc1 | -0.0525
CCCCCN1CC=CC23O[C@@H]4C=CCOC(=O)[C@@H]4[C@H]2C(=O)N(C(CO)C(C)C)[C@@H]3C1=O (stereo partly drawn) | 0.111
C=CC[C@@H]1C=C[C@H](ON=Cc2ccc(C(=O)N3[C@H](c4ccc(C)cc4)[C@@H](C)CC[C@H]3C(=O)OC)cc2)[C@@H](CO)O1 | -0.435
O=C(NN=C1C[C@@H](O)[C@@H](O)[C@@H]2[C@@H]3C(=O)N(c4cccc(Oc5ccccc5)c4)C(=O)[C@@H]3CC[C@@H]12)OCc1ccccc1 | 0.243
CCN(CC)c1ccc(N2CC=CC34O[C@@H]5/C=C\CCC(C)OC(=O)C5[C@H]3C(=O)N(CCCO)[C@@H]4C2=O)cc1 (stereo partly drawn) | 0.267
CCCCc1nc2c(c3c1C[C@H](C)OC3)CN(CCC(C)C)CC2 | 0.431
CCc1cc2c(nc1CC)CCN(CCC(C)=NOC[C@@H](O)COCc1ccco1)C2 | -0.24

---

assay: small-molecule binders of probe aLefty1, primary screen, biochemical, small-molecule microarray, 635/667 nm fluorescence (AID 1153); conditions: higher = more signal;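 note: score merges spot fluorescence with signal-to-noise ratio from the scanned slide images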

MOLECULE | composite z-score
[N-]=[N+]=NCc1ccccc1C[C@]1(C(=O)NCc2ccccc2)N=C(c2ccc(OCCCO)cc2)O[C@H]1c1ccccc1N=[N+]=[N-] | -0.7
O=C1[C@H]2[C@H]3[C@H](O)[C@H](O)CC(=NOCc4ccccc4)[C@@H]3CC[C@H]2C(=O)N1Cc1ccccc1 | -0.147
COc1ccc(-c2ccc3c(n2)CCCN3CC(O)CN2CCCc3nc(C)c(C)cc32)cc1 (configuration not stated) | 0.864
CC(=O)OC[C@H]1O[C@H](CC=NOC[C@@H](C)[C@H](OCc2ccccc2)C(C)C)C=C[C@@H]1OC(C)=O | -0.101
CC(C)CON=C1[C@H]2CCn3c(=O)n(-c4ccccc4)c(=O)n3[C@H]2[C@H](O)[C@@H]2O[C@H]12 | -0.105
COC(=O)C1=C(C)[C@@H](O)[C@@H](C)[C@H](c2c(OC)c(OC)c(C)c(OC)c2OC)O1 | -0.356
CC(=O)O[C@H]1C2=C(C(=O)[C@@H]3O[C@@H]31)[C@H]1C(C)O[C@@H]2[C@@]23C(=O)[C@@H]4O[C@@H]4[C@@H](O)C2=CO[C@H](C)[C@@H]13 (some centres not stated) | -0.191
CC(C)C[C@@H]1NC(=O)[C@H]2C[C@@H](C(=O)NCCCCCCN(C)C)[C@@H](c3cccc(OCCO)c3)N2C1=O | 0.0816
CCOC(=O)[C@H](CC(C)C)NC(=O)CCC1CC(OC(=O)NCc2cccc3ccccc23)CC2(CCCC(COC(=O)NCCN3CCOCC3)O2)O1 (some centres not stated) | -0.275
CC(=O)OC[C@H]1O[C@H](C#CCCCc2ccccc2)C=C[C@@H]1OC(C)=O | -0.0536
[N-]=[N+]=NCc1ccccc1[C@@H]1OC(c2ccc(OCCCO)cc2)=N[C@]1(Cc1ccccc1)C(=O)N1CCOCC1 | 0.904
O=C1[C@H]2[C@H]3[C@H](O)[C@H](O)CC(=NOC[C@@H](O)COCc4ccco4)[C@H]3CC[C@H]2C(=O)N1c1cccc(Oc2ccccc2)c1 | -0.353
CCOc1ccc(N2C(=O)/C(=C/C=C/c3ccccc3OC)S(=O)(=O)C2c2cccc([N+](=O)[O-])c2)cc1 (configuration not stated) | -0.0193
CC(CCN1CCc2nc(-c3ccccc3)c(-c3ccccc3)cc2C1)=NOC(C)CN1CCCCc2nc(C)c(C)cc21 (configuration not stated) | -0.106
CC(=O)OC[C@H]1O[C@@H](ON=C(C)CCN2CCc3nc(-c4ccccc4)c(-c4ccccc4)cc3C2)[C@H](OC(C)=O)[C@@H](OC(C)=O)[C@@H]1OC(C)=O | 0.0355
CC(C)N1CC=CC23O[C@@H]4C=CCCOC(=O)C4[C@H]2C(=O)N(CCCCCCO)[C@@H]3C1=O (some centres not stated) | -0.007
CO[C@H]1O[C@H](CO)[C@@H](OC(=O)Nc2ccc3c(c2)OCO3)[C@H](OC(=O)Nc2ccccc2-c2ccccc2)[C@@H]1OC(=O)Nc1ccccc1-c1ccccc1 | 0.298
C=C(/C(=C/C[C@H](OC(=O)c1ccncc1)c1ccc(OCCO)cc1)c1cnc2ccccc2c1)C(C)C | 0.188
CC(C)NC(=O)[C@@H]1c2ccccc2C(=O)N(CC23CC4CC(CC(C4)C2)C3)[C@H]1c1ccc(CO)cc1 | 0.433
CCOC(=O)[C@H](Cc1ccccc1)NC(=O)CCC1CC(OC(=O)NCCc2ccc(F)cc2)CC2(CCCC(COC(=O)NCC(c3ccccc3)c3ccccc3)O2)O1 (some centres not stated) | -0.144
COC(=O)[C@]1(CO)N=C(c2ccc(OCCCO)cc2)O[C@@H]1c1ccccc1N=[N+]=[N-] | 0.191
COCCCNC(=O)[C@]1(CCC(=O)OC(C)(C)C)N=C(c2ccc(OCCCO)cc2)O[C@@H]1c1ccccc1N=[N+]=[N-] | 0.483
